In what follows, each item is paired with its IC50 for UniProt O95342.

// solved cases for IC50 follow
{"columns": ["compound", "IC50"],
 "data": [
  ["NC(=O)c1ccc([N+](=O)[O-])cc1Cl [AKLOMIDE]", "> 1 mM"],
  ["C[C@@H](O)[C@H]1C(=O)N2C(C(=O)O)=C(SCCN=CN)C[C@H]12 [IMIPENEM ANHYDROUS]", "> 1 mM"],
  ["CCC(NC(C)C)C(O)c1ccc(O)c(O)c1 (centres undefined)", "> 1 mM"]
]}

IN: Give IC50 only, for CC1(C)O[C@@H]2C[C@H]3[C@@H]4CCC5=CC(=O)CC[C@]5(C)[C@@]4(F)[C@@H](O)C[C@]3(C)[C@]2(C(=O)CCl)O1 [HALCINONIDE] , using UniProt O95342 data.
OUT: < 0.01 mM

----------
# measurement.target: Bile salt export pump (Homo sapiens, UniProt O95342)
# Sequence (O95342 whole entry): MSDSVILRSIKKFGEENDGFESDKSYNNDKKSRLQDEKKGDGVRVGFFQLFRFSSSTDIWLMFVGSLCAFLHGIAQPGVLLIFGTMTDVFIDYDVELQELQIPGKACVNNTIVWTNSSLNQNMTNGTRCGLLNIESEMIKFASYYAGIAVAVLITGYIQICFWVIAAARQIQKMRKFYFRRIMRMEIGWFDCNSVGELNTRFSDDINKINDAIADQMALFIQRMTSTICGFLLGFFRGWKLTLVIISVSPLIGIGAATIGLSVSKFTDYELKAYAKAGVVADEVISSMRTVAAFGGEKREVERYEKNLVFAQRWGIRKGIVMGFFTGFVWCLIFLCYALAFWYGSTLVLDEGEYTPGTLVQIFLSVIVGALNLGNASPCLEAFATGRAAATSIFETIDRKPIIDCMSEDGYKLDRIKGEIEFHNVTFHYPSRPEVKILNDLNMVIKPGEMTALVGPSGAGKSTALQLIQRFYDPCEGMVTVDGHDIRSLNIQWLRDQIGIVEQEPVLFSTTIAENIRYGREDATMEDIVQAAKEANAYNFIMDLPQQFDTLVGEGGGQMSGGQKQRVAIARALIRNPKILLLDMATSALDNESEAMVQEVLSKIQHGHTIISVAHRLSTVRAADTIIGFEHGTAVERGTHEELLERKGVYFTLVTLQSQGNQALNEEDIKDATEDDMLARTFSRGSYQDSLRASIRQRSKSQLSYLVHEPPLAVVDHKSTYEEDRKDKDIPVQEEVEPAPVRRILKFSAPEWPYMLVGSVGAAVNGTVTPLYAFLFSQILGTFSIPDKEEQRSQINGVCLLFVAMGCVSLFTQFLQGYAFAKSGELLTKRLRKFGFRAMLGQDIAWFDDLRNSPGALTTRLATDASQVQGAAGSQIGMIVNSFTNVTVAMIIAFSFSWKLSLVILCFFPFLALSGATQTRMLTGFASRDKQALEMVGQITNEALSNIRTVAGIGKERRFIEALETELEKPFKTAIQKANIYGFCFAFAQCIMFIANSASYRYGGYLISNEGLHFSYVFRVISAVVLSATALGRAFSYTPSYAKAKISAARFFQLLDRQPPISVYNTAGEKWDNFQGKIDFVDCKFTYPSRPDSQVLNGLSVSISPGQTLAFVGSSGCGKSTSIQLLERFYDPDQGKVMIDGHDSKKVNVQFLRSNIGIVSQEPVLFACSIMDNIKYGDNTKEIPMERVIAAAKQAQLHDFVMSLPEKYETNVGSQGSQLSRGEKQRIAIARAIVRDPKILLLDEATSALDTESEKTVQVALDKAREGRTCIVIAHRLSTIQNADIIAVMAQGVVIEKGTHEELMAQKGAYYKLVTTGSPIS
pIC50: −log10 of the molar value.
# maps each entry to its pIC50

{"columns": ["compound", "measurement.target", "pIC50"],
 "data": [
  ["CC1=NS(=O)(=O)c2cc(Cl)ccc2N1 [DIAZOXIDE]", "Bile salt export pump (Homo sapiens, UniProt O95342)", "< 3.00"],
  ["CCS[C@]1(SC)CC[C@H]2[C@@H]3CCC4=CC(=O)C=C[C@]4(C)[C@@]3(F)[C@@H](O)C[C@@]21C", "Bile salt export pump (Homo sapiens, UniProt O95342)", "> 5.00"],
  ["COC(=O)[C@H](Cc1ccccc1)NC(=O)[C@@H](N)CC(=O)O", "Bile salt export pump (Homo sapiens, UniProt O95342)", "< 3.00"],
  ["CCCCCCCC/C=C/CCCCCCCC(=O)OCC(COP(=O)(O)OCC[N+](C)(C)C)OC(=O)CCCCCCC/C=C/CCCCCCCC (stereo not given)", "Bile salt export pump (Homo sapiens, UniProt O95342)", "> 4.79"]
]}

IN: Identify measured pIC50 corresponding to O=C(CCCN1CCC2(CC1)C(=O)NCN2c1ccccc1)c1ccc(F)cc1 [SPIPERONE]
OUT: > 5.00

----------
# measurement.target: Bile salt export pump (Homo sapiens, UniProt O95342)
# Format: ADME
pIC50: −log10 of the molar value.
assay.endpoint: pIC50

{"columns": ["given.smiles", "pIC50"],
 "data": [
  ["CCN(CC)CCOC(=O)c1ccc(N)cc1Cl", "< 3.00"],
  ["CS(=O)(=O)OCCCCOS(C)(=O)=O", "< 3.00"],
  ["Cc1ccc(NC(=O)c2cccc3c2oc2ccccc23)cc1NC(=O)c1cccc(CN2CCN(C)CC2)c1", "> 5.00"],
  ["Cc1ccc(NC(=O)c2cccc3c2oc2ccccc23)cc1NC(=O)c1cccc(OC2CCN(C(C)C)CC2)c1", "> 5.00"],
  ["CN[C@]1(C)[C@H]2CC[C@H](C2)C1(C)C", "< 3.00"]
]}

Turning now to a further record.
IN: For the molecule `CCOCCNS(=O)(=O)c1ccc(Nc2nccc(-c3cnc(C)n3C(C)C)n2)cc1` , report pIC50.
OUT: > 5.00

----------
Quick reference: IC50 of the listed items.
# measurement.target: Bile salt export pump (Homo sapiens, UniProt O95342)

{"columns": ["molecule", "measurement.target", "IC50"],
 "data": [
  ["Oc1ccc(CCNCCCCCCNCCc2ccccc2)cc1O", "Bile salt export pump (Homo sapiens, UniProt O95342)", "> 1000 µM"]
]}

IN: Answer with IC50 of CC(C)(C)NCC(O)c1ccccc1Cl (stereo not given) measured for Bile salt export pump (Homo sapiens, UniProt O95342).
OUT: > 1000 µM

IN: Give IC50 only, for `CC[N+](C)(C)Cc1ccccc1Br` , using Bile salt export pump (Homo sapiens, UniProt O95342) data.
OUT: > 1000 µM

IN: Give measured IC50 for O=C(OCC(O)CO)c1ccccc1Nc1ccnc2cc(Cl)ccc12 (stereo not given) (Bile salt export pump (Homo sapiens, UniProt O95342)).
OUT: < 14.9 µM

IN: Report the value of IC50 obtained on Bile salt export pump (Homo sapiens, UniProt O95342) for CN1CCN(CC(=O)N2c3ccccc3C(=O)Nc3cccnc32)CC1 [PIRENZEPINE] .
OUT: > 1000 µM

The origin of these recorded values is ChEMBL document CHEMBL4017441.
